Biological target: c-SRC (Homo sapiens (Human))
Sequence (P12931 whole entry, looked up): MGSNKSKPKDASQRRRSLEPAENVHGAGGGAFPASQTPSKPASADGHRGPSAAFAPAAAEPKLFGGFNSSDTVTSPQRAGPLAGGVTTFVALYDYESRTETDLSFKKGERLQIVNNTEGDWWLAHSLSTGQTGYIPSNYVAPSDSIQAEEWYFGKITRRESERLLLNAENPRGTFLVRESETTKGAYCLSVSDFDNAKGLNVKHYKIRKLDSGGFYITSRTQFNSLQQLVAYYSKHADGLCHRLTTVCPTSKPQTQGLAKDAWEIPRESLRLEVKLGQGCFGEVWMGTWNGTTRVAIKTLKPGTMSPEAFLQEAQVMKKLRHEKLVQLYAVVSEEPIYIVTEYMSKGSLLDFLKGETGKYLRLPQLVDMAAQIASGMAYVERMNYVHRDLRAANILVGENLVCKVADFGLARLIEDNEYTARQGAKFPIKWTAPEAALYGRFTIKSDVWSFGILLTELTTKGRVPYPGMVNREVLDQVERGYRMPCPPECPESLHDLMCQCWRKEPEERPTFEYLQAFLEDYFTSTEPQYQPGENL
Test: Kinase inhibitory activity, isotopic labeling (γ-33P-ATP)
Assay type: biochemical
Conditions: compound at 10 μM
Procedure: The object of this assay was to test the inventive compounds for the kinase inhibitory activity in vitro. In this assay, an isotopic labeling method was used to label the γ phosphate group on ATP. EGFR (including wild type, L858R mutant type and L858R/T790M double mutant type), VEGFR2, ALK, BTK, c-KIT, c-SRC, MET, PDGFRα and FLT3 kinases were tested in vitro for the activity inhibition. Staurosporine was used as a reference molecule (or referred to as a positive control). […]
Measured endpoint: The kinase activity inhibitory rate (%) by the tested compounds at 10 μM c-SRC
Respond with the bare value in %.

Look at this molecule and give its reported The kinase activity inhibitory rate (%) by the tested compounds at 10 μM c-SRC. CC(C)n1c(Nc2ccc(C(=O)Nc3cccc(F)c3)cc2)nc2cnc(Nc3ccc(N4CCN(C)CC4)cc3)nc21
98

Need The kinase activity inhibitory rate (%) by the tested compounds at 10 μM c-SRC, item CN1CCN(c2ccc(Nc3ncc4nc(Nc5ccccc5)n(C5CC5)c4n3)cc2)CC1
83

Bench note: what The kinase activity inhibitory rate (%) by the tested compounds at 10 μM c-SRC did CC(C)n1c(Nc2ccc(NC(=O)Nc3ccc(F)c(Cl)c3)cc2)nc2cnc(Nc3ccc(N4CCN(C)CC4)cc3)nc21 show?
98

Fill in the blank: the reported The kinase activity inhibitory rate (%) by the tested compounds at 10 μM c-SRC of CC(C)n1c(Nc2ccccc2)nc2cnc(Nc3ccc(C(=O)NC4CCN(C)CC4)cc3)nc21 is ____.
98

Give its The kinase activity inhibitory rate (%) by the tested compounds at 10 μM c-SRC value. Item: CN1CCN(c2ccc(Nc3ncc4nc(Nc5ccccc5)n(C)c4n3)cc2)CC1
75

I am curious: what The kinase activity inhibitory rate (%) by the tested compounds at 10 μM c-SRC value has been reported for CC(C)n1c(Nc2ccc(F)c(Cl)c2)nc2cnc(Nc3ccc(C(=O)NN4CCN(C)CC4)cc3)nc21 ?
99

Could you tell me which The kinase activity inhibitory rate (%) by the tested compounds at 10 μM c-SRC is on file for CC(C)n1c(Nc2cccc(Br)c2)nc2cnc(Nc3ccc(N4CCN(C)CC4)cc3)nc21 ?
98

Which The kinase activity inhibitory rate (%) by the tested compounds at 10 μM c-SRC value is on record for CN1CCN(c2ccc(Nc3ncc4nc(Nc5ccccc5)[nH]c4n3)cc2)CC1 ?
78

Can you share its The kinase activity inhibitory rate (%) by the tested compounds at 10 μM c-SRC? I mean this molecule: CN1CCN(c2ccc(Nc3ncc4nc(Nc5ccccc5)n(C5CCCC5)c4n3)cc2)CC1
99

# lookup: The kinase activity inhibitory rate (%) by the tested compounds at 10 μM c-SRC of CC(C)n1c(Nc2cccc(C(F)(F)F)c2)nc2cnc(Nc3ccc(N4CCN(C)CC4)cc3)nc21
90

Can you share its The kinase activity inhibitory rate (%) by the tested compounds at 10 μM c-SRC? I mean this molecule: CC(C)n1c(Nc2ccccc2)nc2cnc(Nc3ccc(C(=O)NN4CCN(C)CC4)cc3)nc21
11

Given the entry CC(C)n1c(Nc2ccccc2)nc2cnc(Nc3ccc(N4CCN(C)CC4)cc3)nc21 , report its measured The kinase activity inhibitory rate (%) by the tested compounds at 10 μM c-SRC.
23

Param item = CC(C)n1c(Nc2ccc(C(F)(F)F)cc2)nc2cnc(Nc3ccc(N4CCN(C)CC4)cc3)nc21 ; retrieve measured The kinase activity inhibitory rate (%) by the tested compounds at 10 μM c-SRC.
98

Quick check: The kinase activity inhibitory rate (%) by the tested compounds at 10 μM c-SRC of CC(C)n1c(Nc2ccc(Br)cc2)nc2cnc(Nc3ccc(N4CCN(C)CC4)cc3)nc21 ?
97

====

So I've got a bunch of molecules here, and I need their log10 of IC50 values.
System: chronic granulocytic leukemia cell strain K562
Assay: In-vitro tumor cell proliferation inhibition, MTT
Type: cell-based, human
Settings: 72 hours
// units: µM (pre-log); metric: IC50; scale: log10

Request: log10 of IC50, test system chronic granulocytic leukemia cell strain K562, entry c1ccc(Nc2nc3cnc(Nc4ccc(CN5CCOCC5)cc4)nc3n2C2CCCC2)cc1 [Compounds 8-48]
-0.64

API: value(readout= log10 of IC50, system= chronic granulocytic leukemia cell strain K562, query= CC(C)n1c(Nc2ccc(F)c(Cl)c2)nc2cnc(Nc3ccc(N4CCN(C)CC4)cc3)nc21 [Compounds 8-13] )
-1.07

Provide the documented log10 of IC50 with chronic granulocytic leukemia cell strain K562 as the system for CN1CCN(c2ccc(Nc3ncc4nc(Nc5ccccc5)n(C5CCCC5)c4n3)cc2)CC1 [Compounds 8-26]
-0.92

Fill in the recorded log10 of IC50 for this molecule, with chronic granulocytic leukemia cell strain K562 as test system: CC(C)n1c(Nc2ccc(NC(=O)Nc3ccc(F)c(Cl)c3)cc2)nc2cnc(Nc3ccc(N4CCN(C)CC4)cc3)nc21 [Compounds 8-21]
0.12

Kindly state the measured log10 of IC50 obtained for CC(C)n1c(Nc2ccccc2)nc2cnc(Nc3ccc(N4CCN(C)CC4)cc3)nc21 [Compounds 8-10] with chronic granulocytic leukemia cell strain K562.
-0.97

Which log10 of IC50 is reported with chronic granulocytic leukemia cell strain K562 for this entry: CN1CCN(c2ccc(Nc3ncc4nc(Nc5cccc(F)c5)n(C5CCCC5)c4n3)cc2)CC1 [Compounds 8-49] ?
-0.92

// fetch chronic granulocytic leukemia cell strain K562 log10 of IC50 for Cc1nc(Nc2ccc(N3CCN(C)CC3)cc2)nc2c1nc(Nc1ccccc1)n2C(C)C [Compounds 8-34]
0.20

Which measured log10 of IC50 belongs to CN1CCN(c2ccc(Nc3ncc4nc(Nc5cc(Cl)c(Cl)cc5Cl)n(C5CCCC5)c4n3)cc2)CC1 [Compounds 8-57] , tested on chronic granulocytic leukemia cell strain K562?
-0.45

Could you share what log10 of IC50 was measured for CC(C)n1c(Nc2ccccc2)nc2cnc(Nc3ccc(C(=O)NC4CCN(C)CC4)cc3)nc21 [Compounds 8-9] , tested on chronic granulocytic leukemia cell strain K562?
-0.84

log10 of IC50 of Cc1cccc(Nc2nc3cnc(Nc4ccc(N5CCN(C)CC5)cc4)nc3n2C2CCCC2)c1 [Compounds 8-53] on chronic granulocytic leukemia cell strain K562?
-1.02

Provide value of log10 of IC50 for this record tested with chronic granulocytic leukemia cell strain K562: CN1CCN(c2ccc(Nc3ncc4nc(Nc5ccc(F)c(Cl)c5)n(C5CCCC5)c4n3)cc2)CC1 [Compounds 8-35]
-0.63

GET /values?readout=log10 of IC50&system=chronic granulocytic leukemia cell strain K562&item= COc1cccc(Nc2nc3cnc(Nc4ccc(N5CCN(C)CC5)cc4)nc3n2C(C)C)c1 [Compounds 8-17]
-2.52

I'm curious: which log10 of IC50 was measured for CC(C)n1c(Nc2ccc(C(F)(F)F)cc2)nc2cnc(Nc3ccc(N4CCN(C)CC4)cc3)nc21 [Compounds 8-27] tested on chronic granulocytic leukemia cell strain K562?
-0.11

log10 of IC50 of CN1CCN(NC(=O)c2ccc(Nc3ncc4nc(Nc5cccnc5)n(C5CCCC5)c4n3)cc2)CC1 [Compounds 8-37] on chronic granulocytic leukemia cell strain K562?
-0.05

====

Target: MET (Homo sapiens (Human))
Sequence (P08581 25-1390): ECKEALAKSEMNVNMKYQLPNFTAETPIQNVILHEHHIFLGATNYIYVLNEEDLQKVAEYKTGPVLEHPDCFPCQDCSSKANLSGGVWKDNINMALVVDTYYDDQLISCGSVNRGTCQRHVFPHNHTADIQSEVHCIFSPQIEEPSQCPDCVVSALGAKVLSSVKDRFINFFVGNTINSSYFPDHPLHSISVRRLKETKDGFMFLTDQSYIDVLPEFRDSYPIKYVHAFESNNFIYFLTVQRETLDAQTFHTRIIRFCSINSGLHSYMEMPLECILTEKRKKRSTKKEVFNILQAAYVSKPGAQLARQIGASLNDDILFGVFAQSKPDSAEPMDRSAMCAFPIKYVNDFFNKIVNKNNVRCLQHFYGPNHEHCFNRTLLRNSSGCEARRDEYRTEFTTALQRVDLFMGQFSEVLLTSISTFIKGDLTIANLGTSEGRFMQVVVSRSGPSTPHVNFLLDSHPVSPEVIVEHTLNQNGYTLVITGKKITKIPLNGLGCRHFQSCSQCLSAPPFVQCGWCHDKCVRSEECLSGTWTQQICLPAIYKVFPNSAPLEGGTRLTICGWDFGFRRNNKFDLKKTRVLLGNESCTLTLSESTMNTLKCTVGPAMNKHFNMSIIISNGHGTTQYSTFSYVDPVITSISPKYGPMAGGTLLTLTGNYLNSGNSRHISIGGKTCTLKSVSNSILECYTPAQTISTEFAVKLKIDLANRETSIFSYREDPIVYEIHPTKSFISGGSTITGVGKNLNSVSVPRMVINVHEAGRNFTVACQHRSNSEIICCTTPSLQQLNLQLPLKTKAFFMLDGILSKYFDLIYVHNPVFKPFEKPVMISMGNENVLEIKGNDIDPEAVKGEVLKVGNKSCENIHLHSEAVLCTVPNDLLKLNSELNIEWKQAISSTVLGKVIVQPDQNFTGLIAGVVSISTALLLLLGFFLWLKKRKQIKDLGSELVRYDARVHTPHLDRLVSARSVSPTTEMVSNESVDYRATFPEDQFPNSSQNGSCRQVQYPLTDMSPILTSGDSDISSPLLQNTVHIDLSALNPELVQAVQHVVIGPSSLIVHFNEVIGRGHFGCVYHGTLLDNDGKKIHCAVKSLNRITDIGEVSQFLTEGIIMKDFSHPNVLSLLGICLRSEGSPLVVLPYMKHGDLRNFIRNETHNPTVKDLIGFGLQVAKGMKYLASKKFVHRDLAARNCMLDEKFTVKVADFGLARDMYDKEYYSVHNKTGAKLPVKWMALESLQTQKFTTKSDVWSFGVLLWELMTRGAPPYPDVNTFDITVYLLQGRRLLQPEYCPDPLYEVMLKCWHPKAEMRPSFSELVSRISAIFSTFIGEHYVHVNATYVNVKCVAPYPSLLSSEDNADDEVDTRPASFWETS
Test: Kinase inhibitory activity, isotopic labeling (γ-33P-ATP)
Type: biochemical
Conditions: compound at 10 μM
Measured endpoint: The kinase activity inhibitory rate (%) by the tested compounds at 10 μM MET
// units = %; emit number, no label

Report The kinase activity inhibitory rate (%) by the tested compounds at 10 μM MET for CC(C)n1c(Nc2ccc(F)c(Cl)c2)nc2cnc(Nc3ccc(N4CCN(C)CC4)cc3)nc21 tested on MET (Homo sapiens (Human)).
100

The kinase activity inhibitory rate (%) by the tested compounds at 10 μM MET of CC(C)n1c(Nc2ccccc2)nc2cnc(Nc3ccc(C(=O)NN4CCN(C)CC4)cc3)nc21 on MET (Homo sapiens (Human))?
83

API: value(readout=The kinase activity inhibitory rate (%) by the tested compounds at 10 μM MET, system=MET (Homo sapiens (Human))) for record COc1ccc(Nc2nc3cnc(Nc4ccc(N5CCN(C)CC5)cc4)nc3n2C(C)C)cc1
7

API: value(readout=The kinase activity inhibitory rate (%) by the tested compounds at 10 μM MET, system=MET (Homo sapiens (Human))) for record CN1CCN(c2ccc(Nc3ncc4nc(Nc5ccccc5)n(C)c4n3)cc2)CC1
0

====

I'd be grateful if you could share measured log10 of IC50 for these entries.
System: non-small cell lung carcinoma cell strain PC-9 (EGFR delE746-A750 deletion mutation)
Experiment: In-vitro tumor cell proliferation inhibition, MTT
Assay type: cell-based, human
Conditions: 72 hours
Use the decimal logarithm of IC50 (nM).

Reported log10 of IC50 for CC(C)n1c(NC2CCCCC2)nc2cnc(Nc3ccc(N4CCN(C)CC4)cc3)nc21 : what is it?
1.74

Would you mind telling me what log10 of IC50 value was observed for C=CC(=O)Nc1cccc(Nc2ncc3nc(Nc4ccccc4)n(C(C)C)c3n2)c1 ?
-0.15

Which log10 of IC50 is reported for this molecule? CC(C)n1c(Nc2ccc(Br)cc2)nc2cnc(Nc3ccc(N4CCN(C)CC4)cc3)nc21
0.81

// returns reported log10 of IC50 for input Cc1cccc(Nc2nc3cnc(Nc4ccc(N5CCN(C)CC5)cc4)nc3n2C2CCCC2)c1
-0.70

Recorded log10 of IC50 for CN1CCN(c2ccc(Nc3ncc4nc(Nc5ccccc5)n(C)c4n3)cc2)CC1 , please?
0.78

What value of log10 of IC50 has been reported for the following molecule? CC(C)n1c(Nc2ccc(F)c(Cl)c2)nc2cnc(Nc3ccc(C(=O)NN4CCN(C)CC4)cc3)nc21
2.75

# query: log10 of IC50 of entry CC(C)n1c(Nc2ccccc2)nc2cnc(Nc3ccc(C(=O)NN4CCN(C)CC4)cc3)nc21
2.02

Consider the molecule CN1CCN(c2ccc(Nc3ncc4nc(Nc5ccccc5)n(C5CCCCC5)c4n3)cc2)CC1 and give its measured log10 of IC50.
0.54

So what does the record say about log10 of IC50 for CCN1CCN(Cc2ccc(Nc3ncc4nc(Nc5ccccc5)n(C5CCCC5)c4n3)cc2)CC1 ?
0.32

Value lookup for log10 of IC50; key = CC(C)n1c(Nc2cccc(Br)c2)nc2cnc(Nc3ccc(N4CCN(C)CC4)cc3)nc21
-0.70

Look up log10 of IC50: CN1CCN(c2ccc(Nc3ncc4nc(Nc5ccc(Br)cc5)n(C5CCCC5)c4n3)cc2)CC1
1.72

# get_value(readout='log10 of IC50', item= CN1CCN(c2ccc(Nc3ncc4nc(Nc5ccccc5)n(C5CCCC5)c4n3)cc2)CC1 )
-0.70

Need log10 of IC50 of CC(C)n1c(Nc2ccccc2)nc2cnc(Nc3ccc(C(=O)NC4CCN(C)CC4)cc3)nc21 , thanks.
1.86

Query (molecule): CC(C)n1c(Nc2ccc(F)c(Cl)c2)nc2cnc(Nc3ccc(N4CCN(C)CC4)cc3)nc21 ; field requested: log10 of IC50
-0.52

Fill blank: measured log10 of IC50 of the molecule CC(C)n1c(Nc2ccc(OCc3cccc(F)c3)c(Cl)c2)nc2cnc(Nc3ccc(N4CCN(C)CC4)cc3)nc21 is ____.
2.66

Item CN1CCN(c2ccc(Nc3ncc4nc(Nc5ccc(F)c(Cl)c5)n(C5CCCC5)c4n3)cc2)CC1 has what recorded log10 of IC50?
0.18

For the molecule COCCOc1ccc(Nc2ncc3nc(Nc4ccccc4)n(C4CCCC4)c3n2)cc1 , what log10 of IC50 is on record?
0.85

Requested field: log10 of IC50. Item: CN1CCN(c2ccc(Nc3ncc4nc(Nc5ccccc5)[nH]c4n3)cc2)CC1
2.41

I am curious: what log10 of IC50 value has been reported for CN1CCN(c2ccc(Nc3ncc4nc(Nc5cccc(O)c5)n(C5CCCC5)c4n3)cc2)CC1 ?
0.98

Name the reported log10 of IC50 value associated with the molecule C#Cc1cccc(Nc2nc3cnc(Nc4ccc(N5CCN(C)CC5)cc4)nc3n2C2CCCC2)c1
0.54

Entry c1ccc(Nc2nc3cnc(Nc4ccc(CN5CCOCC5)cc4)nc3n2C2CCCC2)cc1 has what log10 of IC50?
1.42

Which measured log10 of IC50 value corresponds to CC(C)n1c(Nc2ccc(NC(=O)Nc3ccc(F)c(Cl)c3)cc2)nc2cnc(Nc3ccc(N4CCN(C)CC4)cc3)nc21 ?
1.93

Quick check: log10 of IC50 of CN1CCN(c2ccc(Nc3ncc4nc(Nc5cccc([N+](=O)[O-])c5)n(C5CCCC5)c4n3)cc2)CC1 ?
0.18

What value of log10 of IC50 has been recorded for this entry: CN1CCN(c2ccc(Nc3ncc4nc(Nc5cccc(Cl)c5)n(C5CCCC5)c4n3)cc2)CC1
-0.22

// returns reported log10 of IC50 for input CC(C)n1c(Nc2ccccc2)nc2cnc(Nc3ccc(N4CCN(C)CC4)cc3)nc21
-0.05

Param item = CN1CCN(c2ccc(Nc3ncc4nc(NCc5ccccc5)n(C5CCCC5)c4n3)cc2)CC1 ; retrieve measured log10 of IC50.
0.99

Look at this molecule and give its reported log10 of IC50. CC(C)n1c(Nc2ccc(C(=O)Nc3cccc(F)c3)cc2)nc2cnc(Nc3ccc(N4CCN(C)CC4)cc3)nc21
3.45

Item CC(C)n1c(Nc2cccnc2)nc2cnc(Nc3ccc(N4CCN(C)CC4)cc3)nc21 has what recorded log10 of IC50?
1.00

Look up log10 of IC50: C#Cc1cccc(Nc2nc3cnc(Nc4ccc(N5CCN(C)CC5)cc4)nc3n2C(C)C)c1
-0.70

Find the recorded log10 of IC50 belonging to CC(C)n1c(Nc2ccc(C(F)(F)F)cc2)nc2cnc(Nc3ccc(N4CCN(C)CC4)cc3)nc21 and report it.
2.06

Which log10 of IC50 is reported for this molecule? CN1CCN(c2ccc(Nc3ncc4nc(Nc5ccccc5)n(C5CC5)c4n3)cc2)CC1
1.56

The measurements presented in this section are drawn from patent US9096601B2.
